Entries and their Decomposition efficiency: ratio of each glycoside/aglycon within its isoflavone family values follow.
system: Crude diglycosidase; assay: Examination of substrate concentration in the conversion into isoflavone aglycons by diglycosidase using soybean materials; format: biochemical, Penicillium multicolor IAM7153; conditions: roasted soy flour, substrate concentration 30%, heat treatment of enzyme no, reaction time 1 h;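 further: percent of the isoflavone family total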
measurement name: Decomposition efficiency: ratio of each glycoside/aglycon within its isoflavone family (%)

In [3]: df
Out[3]:
                            compound_smiles  result_number
0       COc1cc2c(=O)c(-c3ccc(O)cc3)coc2cc1O           71.6
1  CC(=O)OC[C@H]1O[C@@H](Oc2cc(O)c3c(=O)c(-c4ccc(O)cc4)coc3c2)[C@H](O)[C@@H](O)[C@@H]1O           46.6

====

System: Crude diglycosidase
Assay: Examination of temperature in the conversion into isoflavone aglycons by diglycosidase using soybean materials
Assay type: biochemical, Penicillium multicolor IAM7153
Settings: 65° C., heat treatment of enzyme no, reaction time 3 h
Protocol: Into 400 μL of 20 mM acetate buffer of pH 4.0 was suspended 50 mg of each of various soybean materials (roasted soy flour (manufactured by Fuji Shokuryo K.K.), soymilk (manufactured by Gitoh Shokuhin K.K.), defatted soybean (manufactured by Fuji Seiyu K.K.), concentrated soybean protein (manufactured by Fuji Seiyu K.K.)), whereby a substrate solution was prepared. Crude diglycosidase was diluted with 20 mM acetate buffer of pH 4.0 to be the glycosidase activity of 1.88 AU/mL. […]
measurement name: Decomposition efficiency of genistin family in defatted soybean (%)

>>> print(df.to_string())
                            compound_smiles         study_system  result_number
0  O=c1c(-c2ccc(O)cc2)coc2cc(O[C@@H]3O[C@H](CO)[C@@H](O)[C@H](O)[C@H]3O)cc(O)c12  Crude diglycosidase            1.8
1      O=c1c(-c2ccc(O)cc2)coc2cc(O)cc(O)c12  Crude diglycosidase           51.8
2  CC(=O)OC[C@H]1O[C@@H](Oc2cc(O)c3c(=O)c(-c4ccc(O)cc4)coc3c2)[C@H](O)[C@@H](O)[C@@H]1O  Crude diglycosidase            1.2
3  O=C(O)CC(=O)OC[C@H]1O[C@@H](Oc2cc(O)c3c(=O)c(-c4ccc(O)cc4)coc3c2)[C@H](O)[C@@H](O)[C@@H]1O  Crude diglycosidase           45.2

====

Decomposition efficiency: ratio of each glycoside/aglycon within its isoflavone family values for the compounds below.
test system: Crude diglycosidase; assay: Examination of substrate concentration in the conversion into isoflavone aglycons by diglycosidase using soybean materials; assay type: biochemical, Penicillium multicolor IAM7153; conditions: roasted soy flour, substrate concentration 20%, heat treatment of enzyme yes, reaction time 6 h;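 further: percent of the isoflavone family total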
measurement name: Decomposition efficiency: ratio of each glycoside/aglycon within its isoflavone family (%)

>>> df
                            compound_smiles  result_number
0  O=c1c(-c2ccc(O)cc2)coc2cc(O[C@@H]3O[C@H](CO)[C@@H](O)[C@H](O)[C@H]3O)cc(O)c12           49.5
1  CC(=O)OC[C@H]1O[C@@H](Oc2ccc3c(=O)c(-c4ccc(O)cc4)coc3c2)[C@H](O)[C@@H](O)[C@@H]1O           47.2
2       COc1cc2c(=O)c(-c3ccc(O)cc3)coc2cc1O            9.1
3  O=c1c(-c2ccc(O)cc2)coc2cc(O[C@@H]3O[C@H](CO)[C@@H](O)[C@H](O)[C@H]3O)ccc12           48.6
